Just for reference, patent US20150210768A1 is where these values come from.

molecular target: TLR4/MD2 (Homo sapiens, UniProt O00206); assay: Binding of S100A9-wt and mutant proteins to TLR4/MD2 (modified S100A9-ELISA); conditions: 2 μg/ml protein, plate-coupled TLR4/MD2, absorbance 450 nm; FIG. 6B, 6C
Sequence (O00206 24-631 limits assumed): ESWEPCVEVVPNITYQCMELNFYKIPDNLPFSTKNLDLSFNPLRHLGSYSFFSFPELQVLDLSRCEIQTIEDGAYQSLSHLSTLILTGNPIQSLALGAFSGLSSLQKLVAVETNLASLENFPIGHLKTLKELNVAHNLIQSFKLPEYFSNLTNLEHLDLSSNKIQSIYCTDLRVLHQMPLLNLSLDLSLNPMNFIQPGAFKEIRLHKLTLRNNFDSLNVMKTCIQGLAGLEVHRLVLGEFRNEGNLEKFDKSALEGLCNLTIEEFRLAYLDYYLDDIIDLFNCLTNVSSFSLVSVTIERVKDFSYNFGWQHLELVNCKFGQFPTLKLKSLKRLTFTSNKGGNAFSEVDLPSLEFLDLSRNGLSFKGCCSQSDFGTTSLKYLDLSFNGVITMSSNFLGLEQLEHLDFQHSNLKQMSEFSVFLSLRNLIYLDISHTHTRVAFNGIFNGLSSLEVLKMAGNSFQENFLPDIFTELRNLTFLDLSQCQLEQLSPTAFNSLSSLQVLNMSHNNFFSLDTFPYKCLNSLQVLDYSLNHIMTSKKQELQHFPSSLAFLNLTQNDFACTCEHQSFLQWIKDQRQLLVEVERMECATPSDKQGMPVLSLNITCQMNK
Sequence (Q9Y6Y9 17-160 partner limits assumed): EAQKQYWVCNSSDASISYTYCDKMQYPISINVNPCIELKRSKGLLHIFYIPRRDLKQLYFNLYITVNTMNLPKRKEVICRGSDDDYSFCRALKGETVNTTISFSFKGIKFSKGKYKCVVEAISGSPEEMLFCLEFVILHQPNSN
Observable: binding to the receptor compared to non-mutated protein (S100A9 wt)

[
  {
    "Molecule": "S100A9D65A (ligand, Purified recombinant mutant of human S100A9, homodimer; also called S100A9 D65A mutant) MTCKMSQLERNIETIINTFHQYSVKLGHPDTLNQGEFKELVRKDLQNFLKKENKNEKVIEHIMEALDTNADKQLSFEEFIMLMARLTWASHEKMHEGDEGPGHHHKPGLGEGTP",
    "Assay Result": "weaker binding"
  },
  {
    "Molecule": "S100A9E77A (ligand, Purified recombinant mutant of human S100A9, homodimer; also called S100A9 E77A mutant) MTCKMSQLERNIETIINTFHQYSVKLGHPDTLNQGEFKELVRKDLQNFLKKENKNEKVIEHIMEDLDTNADKQLSFAEFIMLMARLTWASHEKMHEGDEGPGHHHKPGLGEGTP",
    "Assay Result": "weaker binding"
  },
  {
    "Molecule": "S100A9Q73A (ligand, Purified recombinant mutant of human S100A9, homodimer; also called S100A9 Q73A mutant) MTCKMSQLERNIETIINTFHQYSVKLGHPDTLNQGEFKELVRKDLQNFLKKENKNEKVIEHIMEDLDTNADKALSFEEFIMLMARLTWASHEKMHEGDEGPGHHHKPGLGEGTP",
    "Assay Result": "weaker binding"
  },
  {
    "Molecule": "S100A9E64A (ligand, Purified recombinant mutant of human S100A9, homodimer; also called S100A9 E64A mutant) MTCKMSQLERNIETIINTFHQYSVKLGHPDTLNQGEFKELVRKDLQNFLKKENKNEKVIEHIMADLDTNADKQLSFEEFIMLMARLTWASHEKMHEGDEGPGHHHKPGLGEGTP",
    "Assay Result": "weaker binding"
  }
]
